Values from patent US20230295310A1

biological target: T1, human CD3 expressed on cells (human, UniProt P07766 23-207; P04234 22-171; P09693 23-182); assay: flow cytometry, 25 nM
T1 construct: whole, on cells; CD3 complex on Jurkat cells and on human primary T cells
T1 sequence (P07766 23-207, chain 1 of 3): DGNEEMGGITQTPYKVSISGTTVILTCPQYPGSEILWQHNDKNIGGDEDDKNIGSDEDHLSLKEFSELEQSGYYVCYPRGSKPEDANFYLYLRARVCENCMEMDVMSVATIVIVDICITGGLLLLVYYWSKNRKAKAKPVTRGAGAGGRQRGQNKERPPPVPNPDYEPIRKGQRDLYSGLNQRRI
T1 sequence (P04234 22-171, chain 2 of 3): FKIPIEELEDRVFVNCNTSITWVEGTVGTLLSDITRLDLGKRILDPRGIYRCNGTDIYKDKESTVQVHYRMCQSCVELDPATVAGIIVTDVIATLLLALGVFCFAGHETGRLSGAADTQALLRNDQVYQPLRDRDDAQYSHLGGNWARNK
T1 sequence (P09693 23-182, chain 3 of 3): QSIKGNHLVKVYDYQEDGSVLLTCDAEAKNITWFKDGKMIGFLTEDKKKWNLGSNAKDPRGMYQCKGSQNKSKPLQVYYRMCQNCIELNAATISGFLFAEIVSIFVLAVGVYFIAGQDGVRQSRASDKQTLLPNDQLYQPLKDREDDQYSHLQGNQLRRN
Documented Human primary T Cell Binding (FOI) across a set of binders
Report the value in FOI with no unit label.

Some solved cases for reference:
# binder, measurement_units, Human primary T Cell Binding (FOI)
records = [
    ("mAb 55 (antibody, V domains shown) VH: QVQLEQSGAEVKKPGASVKVSCKTSGYIFANYDINWVRQATGQGLEWMGWMNPKSGKAGYAQKFQGRVTMTSNTPINTAYMELSSLRSEDTAVYYCAREGHYDFWRGFYSFDYWGQGILVTVSS VL: DIQMTQSPSSLSASVGDRVTITCRASQGIRNDLGWYQQKPGKAPKRLIYTASSLQSGVPSRFSGSGSGTEFTLTISSLQPEDFATYFCLQYNTYPYTFGQGTKLEIK", "FOI", 104),
    ("mAb 122 (antibody, V domains shown) VH: EVQLVESGGGLVKTGGSLRLSCVASGFSFKKAWMNWVRQAPGKGLEWVGRIKRNTDGGTADYAAPVKGRFTLSRDDSKKTLYLQMNSLKTEDTAVYYCTTLDSSSRYVGYYYMDVWGKGTTVTVSS VL: DIQMTQSPSSVSASVGDRVIITCRASQDINNWLAWYQQKPGKVPKLLIYTASSLQSGVPSRFSGSGSGTDFTLTIGSLQPEDFATYYCQQAHSLPITFGQGTRLEIK", "FOI", 174),
]

// below: Human primary T Cell Binding (FOI) requested for another binder
# Human primary T Cell Binding (FOI) of mAb 99 (antibody, V domains shown) VH: QGQLVESGGGVVQPGRSLRLSCAASGFTFRGFGMHWVRQAPGKGLEWVAIIYYDGKNKYYADSVKGRFTISRDNSKNTLYLQMNSLRAEDTAVYYCAKGGGYNWFDPWGQGTLVTVSS VL: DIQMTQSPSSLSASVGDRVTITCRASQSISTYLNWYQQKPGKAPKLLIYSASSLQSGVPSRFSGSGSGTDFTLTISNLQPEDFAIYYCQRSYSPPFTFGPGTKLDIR = 218
